The measured values listed here are drawn from patent EP1013768A1.

- Tested on: epoxide hydrolase from Agrobacterium radiobacter AD1, wild type, SEQ ID No. 1
- Run Description: Stereoselective hydrolysis (kinetic resolution) of styrene oxides, comparative experiment with wild type enzyme
- Assay type: biochemical
- Assay Context: substrate 5 mM, Tris buffer 50 mM pH9, 30°C, 10% DMSO for meta- and para-chlorostyrene oxide, chiral GLC
Measured Metric: E-value

Item under review: Clc1ccc(C2CO2)cc1 (stereo not shown) [P-Cl-SO, para-chlorostyrene oxide] . Reported E-value? 32

Subsequent entry: c1ccc(C2CO2)cc1 (racemic) [SO, styrene oxide] 16

Subsequent entry: Clc1cccc(C2CO2)c1 (stereo not shown) [M-Cl-SO, meta-chlorostyrene oxide] 6.5

Subsequent entry: O=[N+]([O-])c1ccc(C2CO2)cc1 (racemic) 100
